test system: HLA A3101 (human)
experiment summary: 125I-probe competition, purified HLA
So I've got a bunch of binders here, and I need their log10(IC50) values.
Hi team, quick reminder: these entries are log10 of IC50 (nM).

log10(IC50) reading for TVSATQLVK (modifications not checked) [HPV18.E2.211] : 3.79

log10(IC50) reading for STAAALYWYK (modifications not checked) [HPV16.E1.314] : 1.54

log10(IC50) reading for STAAALYWYR (modifications not checked) [HPV31.E1.294] : 0.75

log10(IC50) reading for KSLFGMSLMK (modifications not checked) [HPV16.E1.483] : 2.36

log10(IC50) reading for ISFAGIVTK (modifications not checked) [HPV31.E2.205] : 2.06

log10(IC50) reading for SVICFVNSK (modifications not checked) [HPV16.E1.497] : 1.40

log10(IC50) reading for STVSVGTAK (modifications not checked) [HPV18.E2.230] : 3.25

log10(IC50) reading for ATLQDIVLH (modifications not checked) [HPV18.E7.6] : 2.73

log10(IC50) reading for STWHWTGCNK (modifications not checked) [HPV45.E2.322] : 1.73

log10(IC50) reading for RQMNMSQWIK (modifications not checked) [HPV45.E1.411] : 1.65

log10(IC50) reading for SVYGETLEK (modifications not checked) [HPV45.E6.84] : 3.81

log10(IC50) reading for QVVPAYNISK (modifications not checked) [HPV18.E2.61] : 3.82

log10(IC50) reading for KVSEFRWYRY (modifications not checked) [HPV31.E6.72] : 0.48

log10(IC50) reading for VVLLLVRYK (modifications not checked) [HPV16.E1.274] : -1.00

log10(IC50) reading for ATMCRHYKR (modifications not checked) [HPV16.E1.406] : 1.00

log10(IC50) reading for ATTPIIHLK (modifications not checked) [HPV31.E2.291] : 1.53

log10(IC50) reading for KQGAMLAVFK (modifications not checked) [HPV18.E1.210] : 2.72

log10(IC50) reading for AVMCRHYKR (modifications not checked) [HPV45.E1.399] : 1.72
